Literature pIC50 values, system: Collagenase 3 (Homo sapiens).
pIC50: −log10 of the molar value.
observed.property: pIC50

Example cases with answers are listed next.
CCCCCCN1CCN(S(=O)(=O)c2ccc(OC)cc2)C(C(=O)NO)C1 (centres undefined)    8.38
Cn1ccnc1[C@]1(CNC(=O)c2cc3cc(C(F)(F)F)ccc3o2)NC(=O)NC1=O    4.52
CC#CCOc1ccc(S(=O)(=O)N2Cc3ccccc3N(C(=O)c3ccccc3)CC2C(=O)NO)cc1 (centres undefined)    8.02

1: CN(C)c1ccc(C(=O)C2CCN(c3ccc(S(=O)(=O)C4(C(=O)NO)CCOCC4)cc3)CC2)cc1
2: O=C(NCc1cccc(N2CCN(C(=O)Cc3nnn[nH]3)CC2)c1)c1nc2ccccc2c(=O)[nH]1
**Q:** Input pair: 1 , 2 . Output: entry with lower pIC50. The response must carry the label of the picked entry.
**A:** 1
